Each recorded value in this set is attributed to the RNAGym collection of RNA variant scans (doi:10.7554/elife.80360).

Each record here notes measured self-cleavage.
B1: CPEB3 Ribozyme (parent)
chain: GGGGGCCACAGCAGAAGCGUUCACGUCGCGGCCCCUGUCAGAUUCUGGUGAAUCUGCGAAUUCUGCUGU

variants of: B1; assay: self-cleavage, relative activity (ratio to wild type); higher = more cleavage; co-transcriptional
REPORTED PROPERTY: self-cleavage

query_sequence="GGGGGCCACAGCAGAAGCGUUCACGUCGCGGCCCCUGUAAGAUUCUGCUGAAUCUGCGAAUUCUGCUGU [C39A G48C]" reported_property=self-cleavage endpoint_value=0.912
query_sequence="GGGGGCCACAGCAGAAGCGUUCACGUCGCCGCCCUUGUCAGAUUCUGGUGAAUCUGCGAAUUCUGCUGU [G30C C35U]" reported_property=self-cleavage endpoint_value=0.398
query_sequence="GGGGGCCACAGCAGAAGCGUUCACGCCGCGGUCCCUGUCAGAUUCUGGUGAAUCUGCGAAUUCUGCUGU [U26C C32U]" reported_property=self-cleavage endpoint_value=0.974
query_sequence="GGGGGCCACAGCAGCAGCGUUCACGUCGCGGCCCCUGUCAGAUUCUGGUGAAUCUGCGAAUCCUGCUGU [A15C U62C]" reported_property=self-cleavage endpoint_value=0.841
query_sequence="GGGGUCCACAGCAGAAGCGUUCACGUCGCGGCCCCUGUCAGAUUCUGGUGAAUCUUCGAAUUCUGCUGU [G5U G56U]" reported_property=self-cleavage endpoint_value=0.104
query_sequence="GGGGGCCACAGCAGAAGCAUUCACGUCGCGGGCCCUGUCAGAUUCUGGUGAAUCUGCGAAUUCUGCUGU [G19A C32G]" reported_property=self-cleavage endpoint_value=0.153
query_sequence="GGGGGCCACAGCGGAAGCGUUCACGUCACGGCCCCUGUCAGAUUCUGGUGAAUCUGCGAAUUCUGCUGU [A13G G28A]" reported_property=self-cleavage endpoint_value=0.139
query_sequence="GGGGGCCACAGCAGAAGCGUUCACGUCGCGGCCCCUGUCAGUUUCUGGUGAAUCUGCGUAUUCUGCUGU [A42U A59U]" reported_property=self-cleavage endpoint_value=0.677
query_sequence="GGGGGCCACAGCAGAAGCGUUCACGUCGCGGCCCCUGUCAGAUUCUGGUGAAUUUGCGAAUUCCGCUGU [C54U U64C]" reported_property=self-cleavage endpoint_value=0.92
query_sequence="GGGGGCCACAGGAGAAGCGUUCACGUCGCGGCUCCUGUCAGAUUCUGGUGAAUCUGCGAAUUCUGCUGU [C12G C33U]" reported_property=self-cleavage endpoint_value=0.405
query_sequence="GCGGGCCACAGCAGAAGCGUUCACGUCGCGGCCCCUGUCAGAUUCUGGUGAAUCUGCGAAUUAUGCUGU [G2C C63A]" reported_property=self-cleavage endpoint_value=0.0459
query_sequence="GGGGGCCACAGCUGAAGCGUUCACGUCGCGGCCCCUGUCAGAUUCUGGUGAAUCUGCGAAUUCUGCGGU [A13U U67G]" reported_property=self-cleavage endpoint_value=0.827
query_sequence="GGGGGCCACAGCAGAAGCGUGCACGUCGCGGCCCCUGUCAGAUUCUGGUGAAUAUGCGAAUUCUGCUGU [U21G C54A]" reported_property=self-cleavage endpoint_value=0.341
query_sequence="GGGGGCCACAGCAGAAGCGUUCACGUCGGGGCCCCUGUCACAUUCUGGUGAAUCUGCGAAUUCUGCUGU [C29G G41C]" reported_property=self-cleavage endpoint_value=0.173
query_sequence="GGGCGCCACAGCAGAAGCGUUCACGUCGCGGCCCCUGUCAUAUUCUGGUGAAUCUGCGAAUUCUGCUGU [G4C G41U]" reported_property=self-cleavage endpoint_value=0.159
query_sequence="GGGGGCCACAGCAGAAGCCUUCACGUCGCGGCCCCUGUCAUAUUCUGGUGAAUCUGCGAAUUCUGCUGU [G19C G41U]" reported_property=self-cleavage endpoint_value=0.129
query_sequence="GGGGGCCACAGCAGAAGCGUUCACGUCGCGGCCCCUGUUAGAUUCUAGUGAAUCUGCGAAUUCUGCUGU [C39U G47A]" reported_property=self-cleavage endpoint_value=0.948
query_sequence="GGGGGCCACAGCAGAAGCGUUCACGUCGCGGCCCCUGUCAGAUUCUGGUGCAUCUGCGACUUCUGCUGU [A51C A60C]" reported_property=self-cleavage endpoint_value=0.477
query_sequence="GGGGGCCACAGCAGAAGAGUUCACGUCGCGGCCCAUGUCAGAUUCUGGUGAAUCUGCGAAUUCUGCUGU [C18A C35A]" reported_property=self-cleavage endpoint_value=0.155
query_sequence="GGGGGCCACAGCAGAAGCGUUCACGUCGCGGCCCCUGUCAGAUUCUGGUGAAUCUGCGCAUUCUGCUCU [A59C G68C]" reported_property=self-cleavage endpoint_value=0.909
query_sequence="GGGGGCCACAGCAGAAGCGUUGACGUCGCGGCCCCUGUCAGAUUCUGGUGAAUCUGCGAAAUCUGCUGU [C22G U61A]" reported_property=self-cleavage endpoint_value=0.181
query_sequence="GGGGCCCACAGCAGAAGCGUUCACGUAGCGGCCCCUGUCAGAUUCUGGUGAAUCUGCGAAUUCUGCUGU [G5C C27A]" reported_property=self-cleavage endpoint_value=0.109
query_sequence="GGGGGCCACAGCGGAAGCGUUCACGUCGCGGCCCCUGUCAGAUUCUGGUGAAUCUGCGAAAUCUGCUGU [A13G U61A]" reported_property=self-cleavage endpoint_value=0.834
query_sequence="GGGGGCCACAGCAGAAGCGUUCACUUCGCGGCCCCUGUCAGAUUCUGGUGAAUCUGCGAAUUCUACUGU [G25U G65A]" reported_property=self-cleavage endpoint_value=0.184
query_sequence="GGGGGCCCCAGCAGAAGCGGUCACGUCGCGGCCCCUGUCAGAUUCUGGUGAAUCUGCGAAUUCUGCUGU [A8C U20G]" reported_property=self-cleavage endpoint_value=0.141
query_sequence="GGGGGCCACAGCAGAAGCGUUCACGUCGCGGCCCCUGUCAGAUUCUGGUGAAUCUGCGACUUCUGAUGU [A60C C66A]" reported_property=self-cleavage endpoint_value=0.288
query_sequence="GGGGGCCACAGAAGAAGCGUUCACGUCGCGGCCCCUGUCAAAUUCUGGUGAAUCUGCGAAUUCUGCUGU [C12A G41A]" reported_property=self-cleavage endpoint_value=0.213
query_sequence="GGGGGCCACAGCAGAAGCGUUAACGUUGCGGCCCCUGUCAGAUUCUGGUGAAUCUGCGAAUUCUGCUGU [C22A C27U]" reported_property=self-cleavage endpoint_value=0.144
query_sequence="GGUGGCCACAGCAGAAGCGUUCACGUCGCGGCCCCUGUCAGCUUCUGGUGAAUCUGCGAAUUCUGCUGU [G3U A42C]" reported_property=self-cleavage endpoint_value=0.0373
query_sequence="GGGGGCGACAGCAGAAGCGUUCACGUCGCGGACCCUGUCAGAUUCUGGUGAAUCUGCGAAUUCUGCUGU [C7G C32A]" reported_property=self-cleavage endpoint_value=0.0649
query_sequence="GGGGGCCACAGCAGAAGUGUUCACGUCGCGGCCCCUGUCAGAUUCUGGUGCAUCUGCGAAUUCUGCUGU [C18U A51C]" reported_property=self-cleavage endpoint_value=0.771
query_sequence="GGGGGCCACAGCAGAAGCGUUCACGUCGCGGCGCCUGGCAGAUUCUGGUGAAUCUGCGAAUUCUGCUGU [C33G U38G]" reported_property=self-cleavage endpoint_value=0.324
query_sequence="GGGGGCCACAGCAGAAGCGUUCAUGUCGCGGCCCCUGUCAGAUUCUGGUGAAUCUGCGAAUUCUGCUAU [C24U G68A]" reported_property=self-cleavage endpoint_value=0.919
query_sequence="GGGGGCCACAGCAGAAGCGUUCACGUCGCGGCCCCUGUCAGAUUCUGGUAAAUCGGCGAAUUCUGCUGU [G50A U55G]" reported_property=self-cleavage endpoint_value=0.858
query_sequence="GGGGGCCACAGCCGAAGCGUUCACGUCGCGGCCACUGUCAGAUUCUGGUGAAUCUGCGAAUUCUGCUGU [A13C C34A]" reported_property=self-cleavage endpoint_value=0.511
query_sequence="GGGGGCCACAGCAGCAGCGUUCACGUCGCGGCCCCUGUCAGAUUCUGGUGAAUCUGCGAAUUCUGCCGU [A15C U67C]" reported_property=self-cleavage endpoint_value=0.888
query_sequence="GGGGGCCACAGCAGUAGCGUUCACGUCGCGGCCCCUGUCAGGUUCUGGUGAAUCUGCGAAUUCUGCUGU [A15U A42G]" reported_property=self-cleavage endpoint_value=0.68
query_sequence="GGGUGUCACAGCAGAAGCGUUCACGUCGCGGCCCCUGUCAGAUUCUGGUGAAUCUGCGAAUUCUGCUGU [G4U C6U]" reported_property=self-cleavage endpoint_value=0.31
query_sequence="AGGGGCCACAGCAGAAGCGUUCACGUCGCGGCCCCUGUCAGAUUCUGGUGAAUCUGCGAAUUCUGCAGU [G1A U67A]" reported_property=self-cleavage endpoint_value=0.121
query_sequence="GGGGGCCACAGCAGAAGCGUUCACGUCGCGGCCCCUGCCAGAUUCUGGUGAAUCUGCGCAUUCUGCUGU [U38C A59C]" reported_property=self-cleavage endpoint_value=0.306
query_sequence="GGGGGCCACAGAAGAAGCGUUCACGUCGCCGCCCCUGUCAGAUUCUGGUGAAUCUGCGAAUUCUGCUGU [C12A G30C]" reported_property=self-cleavage endpoint_value=0.194
query_sequence="GGGGGCCACAGCAGAAGCGUUCACGUCGCGGCCCCUGUCACGUUCUGGUGAAUCUGCGAAUUCUGCUGU [G41C A42G]" reported_property=self-cleavage endpoint_value=0.754
query_sequence="GGGGGCCACUCCAGAAGCGUUCACGUCGCGGCCCCUGUCAGAUUCUGGUGAAUCUGCGAAUUCUGCUGU [A10U G11C]" reported_property=self-cleavage endpoint_value=0.892
query_sequence="GGGGGCCACAGCAGAAGCGUUCACGUCGCGGCCCCUAUCAGAUUCUGGUGAAUCUGCGAAUUCUGCUGA [G37A U69A]" reported_property=self-cleavage endpoint_value=0.422
query_sequence="GGGUGCCACAGCAGAAGCGUUCACGUCACGGCCCCUGUCAGAUUCUGGUGAAUCUGCGAAUUCUGCUGU [G4U G28A]" reported_property=self-cleavage endpoint_value=0.0947
query_sequence="GGGGGCCACAGCAGAAGCGAUCACGUCGCGGCCCCUGUCAGAUUCUGGUGAAUCUGCCAAUUCUGCUGU [U20A G58C]" reported_property=self-cleavage endpoint_value=0.164
query_sequence="GGGGGCCACAGCAGAAGCGUUCACGUCGCGGCCCCUGUCAGAUUCUGGUGAAUCUUCGCAUUCUGCUGU [G56U A59C]" reported_property=self-cleavage endpoint_value=0.514
query_sequence="GGGGGCCACAGCAGAAGCGUUCACGUCGCGGCCCCUGUCAAAUUCUGGUGAAUCUGCGAAUUCUGCCGU [G41A U67C]" reported_property=self-cleavage endpoint_value=0.818
query_sequence="GGGGGCCACAGCAGAAGCGUUCACGUCGCGGCCCCUGUCAGAUCCUGGUGAAUCUGCGACUUCUGCUGU [U44C A60C]" reported_property=self-cleavage endpoint_value=0.378
query_sequence="GGGGGCCACAGCAGAAGCGUUCACGUCGCGGCCCCUGUCAGUUUAUGGUGAAUCUGCGAAUUCUGCUGU [A42U C45A]" reported_property=self-cleavage endpoint_value=0.889
query_sequence="GGGGGCCACAGCAGGAGCGUUCACGUCGCGGCCCCUGUCAGAUUCUGGUGAAUCUGCGAUUUCUGCUGU [A15G A60U]" reported_property=self-cleavage endpoint_value=0.579
query_sequence="GGGGGCCACAGCAGAAGCGUUCACGUCGCGGCCCCUGUCAAAUUGUGGUGAAUCUGCGAAUUCUGCUGU [G41A C45G]" reported_property=self-cleavage endpoint_value=0.537
query_sequence="GGGGGCCACAGAAGAAGCGUUCACGUCGCGGCCCCUGUCAGAUUCUGGUGAAUCUGCGAAUUCUGCUGU [C12A]" reported_property=self-cleavage endpoint_value=0.806
query_sequence="GGGGGCCACAGCAGAAGCGUUCACGUCGCGGCCCCUGUCAGAUUCUAGUGAAUCUGCGAAUUUUGCUGU [G47A C63U]" reported_property=self-cleavage endpoint_value=1.02
query_sequence="GGGGGCCACAGCAGCAGCGUUCACGUCGCGGCCGCUGUCAGAUUCUGGUGAAUCUGCGAAUUCUGCUGU [A15C C34G]" reported_property=self-cleavage endpoint_value=0.131
